Reference source for all entries: patent US20120214862A1

# System: human Factor 7 mRNA
# assaySummary: Antisense inhibition of human Factor 7 mRNA in HepB3 cells, lipofectin, 50 nM, real-time RT-PCR
# Assay type: cell-based
# conditionParameters: HepB3 cells; gapmers (5-10-5, 3-14-3, 2-13-5 MOE) targeted to nucleobases 4868 to 4899 of SEQ ID NO: 1
In the oligonucleotide strings, read from the 5' end, every base follows the letter of its sugar. An asterisk marks phosphorothioate; unmarked linkages are phosphodiester. Other units and linkages are bracketed, terminal groups are in braces. A string of capitals states the bases alone. e = 2'-O-(2-methoxyethyl) (MOE); [5mC] = 5-methylcytosine; d = 2'-deoxy (DNA)
Recorded % Inhibition of human Factor 7 mRNA levels values for a group of substances are listed next.
recordedEndpoint: % Inhibition of human Factor 7 mRNA levels (%)

1. 422302 (antisense eA*eG*dG*dA*dG*d[5mC]*d[5mC]*d[5mC]*dG*dA*dG*dT*dT*d[5mC]*dT*eG*e[5mC]*eA*eG*eG) [compound 422302] | 67
2. 422293 (antisense eA*eG*dT*dT*d[5mC]*dT*dG*d[5mC]*dA*dG*dG*dA*dG*d[5mC]*dG*eG*e[5mC]*e[5mC]*eT*eA) [compound 422293] | 69
3. 422291 (antisense eT*eT*d[5mC]*dT*dG*d[5mC]*dA*dG*dG*dA*dG*d[5mC]*dG*dG*d[5mC]*e[5mC]*eT*eA*eA*eA) [compound 422291] | 53
4. 422216 (antisense eA*eG*eT*dT*d[5mC]*dT*dG*d[5mC]*dA*dG*dG*dA*dG*d[5mC]*dG*dG*d[5mC]*e[5mC]*eT*eA) [compound 422216] | 68
5. 422139 (antisense eT*eT*e[5mC]*eT*eG*d[5mC]*dA*dG*dG*dA*dG*d[5mC]*dG*dG*d[5mC]*e[5mC]*eT*eA*eA*eA) [compound 422139] | 66
